TARGET ENTITY: Histamine H4 receptor (Homo sapiens) (UniProt Q9H3N8)
Sequence (Q9H3N8 whole entry): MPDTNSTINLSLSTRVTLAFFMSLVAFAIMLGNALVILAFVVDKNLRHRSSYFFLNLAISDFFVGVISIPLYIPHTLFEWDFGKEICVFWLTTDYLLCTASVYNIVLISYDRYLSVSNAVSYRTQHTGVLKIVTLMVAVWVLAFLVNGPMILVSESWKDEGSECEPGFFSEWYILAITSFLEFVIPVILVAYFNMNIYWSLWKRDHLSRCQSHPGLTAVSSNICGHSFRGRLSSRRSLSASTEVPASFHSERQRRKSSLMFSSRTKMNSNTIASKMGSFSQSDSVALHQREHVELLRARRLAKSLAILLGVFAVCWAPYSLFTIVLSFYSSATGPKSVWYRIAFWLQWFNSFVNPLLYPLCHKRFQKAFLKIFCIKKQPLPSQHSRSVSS
ASSAY REMARKS: Binding affinity to human histamine H4 receptor at 10 uM by radioligand binding assay
Overview of reported inhibition across a group of compounds:

Report the value of inhibition obtained on Histamine H4 receptor (Homo sapiens) (UniProt Q9H3N8) for C[C@@H]1CCCN1CCCOc1ccc2c(c1)CCc1cc(=O)[nH]nc1-2 .
< 40%

Report the value of inhibition obtained on Histamine H4 receptor (Homo sapiens) (UniProt Q9H3N8) for C[C@@H]1CCCN1CCCOc1ccc2c(c1)CCc1n[nH]c(=O)cc1-2 .
< 45%

Report the value of inhibition obtained on Histamine H4 receptor (Homo sapiens) (UniProt Q9H3N8) for C[C@@H]1CCCN1CCCOc1ccc2c(c1)CCc1cc(=O)n(C)nc1-2 .
< 40%

Report the value of inhibition obtained on Histamine H4 receptor (Homo sapiens) (UniProt Q9H3N8) for CC(C)n1nc2c(cc1=O)CCc1cc(OCCCN3CCC[C@H]3C)ccc1-2 .
< 40%

###

TARGET ENTITY: Histamine H2 receptor (Homo sapiens)
ASSAY REMARKS: Binding affinity to human histamine H2 receptor at 10 uM by radioligand binding assay
PROPERTY NAME: inhibition

C[C@@H]1CCCN1CCCOc1ccc2c(c1)CCc1cc(=O)n(C)nc1-2 | < 40%
CC(C)n1nc2c(cc1=O)CCc1cc(OCCCN3CCC[C@H]3C)ccc1-2 | < 40%
C[C@@H]1CCCN1CCCOc1ccc2c(c1)CCc1n[nH]c(=O)cc1-2 | < 45%

Now, please, on to the next compound.
Hello, please tell me recorded inhibition for this one: C[C@@H]1CCCN1CCCOc1ccc2c(c1)CCc1cc(=O)[nH]nc1-2
< 40%

###

ASSAY REMARKS: Half life in rat at 1 mg/kg, iv
Assay type: ADME, organism-based
Set-up: dose 1 mg/kg, route intravenous
CONDITION: in vivo
Overview of reported half-life across a group of compounds:
Record the result as a number with its unit.

Solved cases below.
C[C@@H]1CCCN1CCCOc1ccc2c(c1)CCC1CC(=O)NN=C21 (mixture of isomers) | 42 min
C[C@@H]1CCCN1CCCOc1ccc2c(c1)CCc1cc(=O)[nH]nc1-2 | 84 min

Hello, please tell me recorded half-life for this one: C[C@@H]1CCCN1CCCOc1ccc2c(c1)CCc1cc(=O)n(C)nc1-2
24 min

###

Overview of reported clearance across a group of compounds:
ASSAY REMARKS: Clearance in rat at 1 mg/kg, iv
Type: ADME, organism-based
Parameters: dose 1 mg/kg, route intravenous
CONDITION: in vivo
Form entry: value (mL/min/kg) — number only.

Solved cases below.
C[C@@H]1CCCN1CCCOc1ccc2c(c1)CCc1cc(=O)n(C)nc1-2 | 36
C[C@@H]1CCCN1CCCOc1ccc2c(c1)CCC1CC(=O)NN=C21 (mixture of isomers) | 93

Now, please, on to the next compound.
Hello, please tell me recorded clearance for this one: C[C@@H]1CCCN1CCCOc1ccc2c(c1)CCc1cc(=O)[nH]nc1-2
11

###

ASSAY REMARKS: Oral bioavailability in rat at 5 mg/kg
Format: ADME, organism-based
CONDITION: in vivo
Overview of reported bioavailability across a group of molecules:
Form entry: value (%) — number only.

Solved cases below.
O=C1CC2CCc3cc(OC4CCN(C5CCC5)CC4)ccc3C2=NN1 (racemic) | 44
C[C@@H]1CCCN1CCCOc1ccc2c(c1)CCc1cc(=O)[nH]nc1-2 | 2

Hello, please tell me recorded bioavailability for this one: C[C@@H]1CCCN1CCCOc1ccc2c(c1)CCc1cc(=O)n(C)nc1-2
3

Hello, please tell me recorded bioavailability for this one: C[C@@H]1CCCN1CCCOc1ccc2c(c1)CCC1CC(=O)NN=C21 (mixture of isomers)
11
